Recorded pEC50 values for a group of molecules are listed next.
# TARGET_ENTITY: human M2 receptor (Homo sapiens, UniProt P08172)
# Sequence (P08172 1-466): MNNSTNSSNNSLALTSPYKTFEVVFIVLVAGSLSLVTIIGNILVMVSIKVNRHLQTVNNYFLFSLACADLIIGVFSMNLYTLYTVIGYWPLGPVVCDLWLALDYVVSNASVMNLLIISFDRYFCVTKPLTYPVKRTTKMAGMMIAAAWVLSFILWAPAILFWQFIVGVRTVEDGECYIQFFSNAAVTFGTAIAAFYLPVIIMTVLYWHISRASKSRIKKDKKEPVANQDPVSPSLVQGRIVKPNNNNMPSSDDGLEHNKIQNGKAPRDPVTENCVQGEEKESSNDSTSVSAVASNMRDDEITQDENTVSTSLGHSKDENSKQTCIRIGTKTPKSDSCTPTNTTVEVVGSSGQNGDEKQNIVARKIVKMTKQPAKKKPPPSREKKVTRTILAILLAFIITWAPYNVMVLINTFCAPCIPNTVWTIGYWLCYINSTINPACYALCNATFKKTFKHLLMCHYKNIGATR
# EXPERIMENTAL_PARAMETERS: Receptor activity EC50, allosteric potency at EC20 acetylcholine; M2-GIRK1/4 reporter cells; in some cases mean of two or more determinations
pEC50: −log10 of the molar value.

[
  {
    "MOLECULE": "O=C(NC(c1ccccc1Cl)C(F)(F)F)c1cn(-c2c(F)cc(F)cc2F)c2nc(N3C[C@@H](O)CC3=O)ccc2c1=O (single isomer, unassigned) [Example 534]",
    "TARGET_ENTITY": "human M2 receptor (Homo sapiens, UniProt P08172)",
    "pEC50": 8.22
  },
  {
    "MOLECULE": "CC[C@@H](NC(=O)c1cn(-c2c(Cl)cccc2Cl)c2nc(N3C[C@@H](O)CC3=O)ccc2c1=O)C(F)(F)F",
    "TARGET_ENTITY": "human M2 receptor (Homo sapiens, UniProt P08172)",
    "pEC50": 7.13
  },
  {
    "MOLECULE": "O=C(Nc1c(Cl)cccc1Cl)c1cn(-c2ccc(F)cc2F)c2nc(N3CC4CC4(O)C3)ccc2c1=O (racemic)",
    "TARGET_ENTITY": "human M2 receptor (Homo sapiens, UniProt P08172)",
    "pEC50": 7.68
  }
]

---

# TARGET_ENTITY: UniProtKB P08172
# Sequence (P08172 1-466): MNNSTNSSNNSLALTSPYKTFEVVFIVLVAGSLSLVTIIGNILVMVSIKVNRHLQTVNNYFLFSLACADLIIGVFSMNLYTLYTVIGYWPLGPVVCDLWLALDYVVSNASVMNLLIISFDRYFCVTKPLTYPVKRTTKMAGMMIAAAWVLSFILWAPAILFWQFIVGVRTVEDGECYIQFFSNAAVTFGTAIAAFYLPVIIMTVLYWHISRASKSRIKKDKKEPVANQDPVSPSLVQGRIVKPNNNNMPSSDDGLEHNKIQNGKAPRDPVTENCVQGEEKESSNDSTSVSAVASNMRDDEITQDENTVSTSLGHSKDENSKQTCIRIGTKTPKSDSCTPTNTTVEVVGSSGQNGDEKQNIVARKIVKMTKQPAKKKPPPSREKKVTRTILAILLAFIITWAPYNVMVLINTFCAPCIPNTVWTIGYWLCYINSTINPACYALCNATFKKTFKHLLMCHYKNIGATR
# EXPERIMENTAL_PARAMETERS: Receptor activity EC50, M2-GIRK1/4 activation test, acetylcholine at EC20; allosteric potency; in some cases mean values from two or more determinations
Recorded EC50 values for a group of compounds are listed next.

[
  {
    "COMPOUND": "CC12CCC(NC(=O)c3cn(-c4ccc(F)cc4F)c4nc(N5CC(O)CC5=O)ccc4c3=O)(CC1)CC2 (stereo not shown)",
    "TARGET_ENTITY": "UniProtKB P08172",
    "EC50 / nM": 59
  },
  {
    "COMPOUND": "CC[C@@H](NC(=O)c1cn(-c2c(F)cccc2F)c2nc(N3CC4CC4(O)C3)ccc2c1=O)C(F)(F)F (single isomer, unassigned) [Example 306]",
    "TARGET_ENTITY": "UniProtKB P08172",
    "EC50 / nM": 52
  },
  {
    "COMPOUND": "CC[C@H](NC(=O)c1cn(-c2ccc(F)cc2F)c2nc(NCCF)ccc2c1=O)C(F)(F)F",
    "TARGET_ENTITY": "UniProtKB P08172",
    "EC50 / nM": 129
  },
  {
    "COMPOUND": "CC[C@@H](NC(=O)c1cn(-c2ccc(F)cc2F)c2nc(NCCF)ccc2c1=O)C(F)(F)F",
    "TARGET_ENTITY": "UniProtKB P08172",
    "EC50 / nM": 89
  },
  {
    "COMPOUND": "O=C(N[C@@H](C1CC1)C(F)(F)F)c1cn(-c2c(F)cc(F)cc2F)c2nc(N3CCN(CCO)C3=O)ccc2c1=O",
    "TARGET_ENTITY": "UniProtKB P08172",
    "EC50 / nM": 45
  },
  {
    "COMPOUND": "CC[C@@H](NC(=O)c1cn(-c2ccc(F)cc2F)c2nc(N3CCOC(C(F)F)C3)ccc2c1=O)C(F)(F)F (single isomer, unassigned) [Example 264]",
    "TARGET_ENTITY": "UniProtKB P08172",
    "EC50 / nM": 530
  },
  {
    "COMPOUND": "CN(C)c1ccc2c(=O)c(C(=O)NC(c3ccc(F)cc3)C(F)(F)F)cn(-c3ccc(F)cc3F)c2n1 (racemic)",
    "TARGET_ENTITY": "UniProtKB P08172",
    "EC50 / nM": 65
  }
]
